FYI, the data here is from ChEMBL document CHEMBL4513216.

Assay: Toxicity liver stage against HepG2, at 10uM
Format: cell-based
Set-up: test concentration 10 uM, cell line HepG2-A16-CD81EGFP
Conditions: human, HepG2-A16-CD81EGFP cells; read-out: INHIBITION
Measured cytotoxicity at 10 µM, listed per entry.

{"compound": "Cn1ccnc1C1(O)CCN(C(=O)Cc2ccccc2)CC1", "unit-tag": "%", "cytotoxicity at 10 µM": 5.09}
{"compound": "O=C(COCC1CC1)N1CCN(C(=O)Cc2ccccn2)CC1", "unit-tag": "%", "cytotoxicity at 10 µM": 10.3}
{"compound": "Cc1nc[nH]c1CN(Cc1ccccc1)Cc1nccs1", "unit-tag": "%", "cytotoxicity at 10 µM": 2.14}
{"compound": "COCCN(C)Cc1ccc(OC)c(OC(F)F)c1", "unit-tag": "%", "cytotoxicity at 10 µM": -5.5}
{"compound": "Cc1cnc(CNC(=O)[C@@]23CCO[C@@H]2CCNC3)cn1", "unit-tag": "%", "cytotoxicity at 10 µM": -108}
{"compound": "CCN(CC)S(=O)(=O)N1C[C@@H](c2ccccc2)[C@H]2[C@H]1CCCCCN2C", "unit-tag": "%", "cytotoxicity at 10 µM": -10.4}
{"compound": "O=C(NCCNc1ncccn1)c1cnc(-c2ccccc2)nc1", "unit-tag": "%", "cytotoxicity at 10 µM": 12.1}
{"compound": "CCCNC(=O)CNc1ccc2c(c1)N(C(=O)OC(C)(C)C)CCC2", "unit-tag": "%", "cytotoxicity at 10 µM": 13}
{"compound": "CS(=O)(=O)NCCCN1CCCC1c1cccc(Br)c1 (centres undefined)", "unit-tag": "%", "cytotoxicity at 10 µM": -2.51}
{"compound": "CC(C)N1CCC(NC(=O)NCCC(=O)NCc2ccccc2)C1 (centres undefined)", "unit-tag": "%", "cytotoxicity at 10 µM": -0.986}
{"compound": "CN1CCC2(CC1)CN(C(=O)c1cccc3cccnc13)CCN2C", "unit-tag": "%", "cytotoxicity at 10 µM": 1.54}
{"compound": "CCC1=N[C@@]2(CC[C@@H]3CN(CC4CC4)C[C@@H]32)C(=O)N1C", "unit-tag": "%", "cytotoxicity at 10 µM": 0.153}
{"compound": "CC(=O)c1cccc(S(=O)(=O)NCC(C)(O)c2cccs2)c1 (centres undefined)", "unit-tag": "%", "cytotoxicity at 10 µM": -17}
{"compound": "Cc1cc(NCCCNc2cccnc2)n2nc(C)c(C)c2n1", "unit-tag": "%", "cytotoxicity at 10 µM": 2.35}
{"compound": "CC(C)(C)CC(=O)N[C@@H]1CO[C@H](CNC(=O)c2ccncc2)[C@H]1O", "unit-tag": "%", "cytotoxicity at 10 µM": -3.81}
{"compound": "CCOC(=O)c1c(NC(=O)CN2CCN(C(C)=O)CC2)sc(C)c1C", "unit-tag": "%", "cytotoxicity at 10 µM": 1.15}
{"compound": "Cc1nc(CN(C)c2nc3c(cnn3C(C)(C)C)c(=O)[nH]2)cs1", "unit-tag": "%", "cytotoxicity at 10 µM": -5.53}
{"compound": "COc1ccc(CNC(=O)c2ccc(=O)n(C)c2)cc1C", "unit-tag": "%", "cytotoxicity at 10 µM": 2.31}
{"compound": "CCc1nc(CSc2nnc(N)n2C2CC2)no1", "unit-tag": "%", "cytotoxicity at 10 µM": 6.12}
{"compound": "Cc1cc(C)c(CNC(=O)Cc2ccc3c(c2)CCCC3)c(=O)[nH]1", "unit-tag": "%", "cytotoxicity at 10 µM": -7.39}
{"compound": "Cc1cc(NCC(=O)N(C)Cc2cccs2)c(C(N)=O)cc1F", "unit-tag": "%", "cytotoxicity at 10 µM": 0.83}
{"compound": "CCCc1nc(C(=O)N2CCN(C(=O)c3ccc(OC)cc3)CC2)cs1", "unit-tag": "%", "cytotoxicity at 10 µM": -3.07}
{"compound": "CCC(O)CN(CC(=O)NC(=O)NC1CC1)c1ccccc1 (centres undefined)", "unit-tag": "%", "cytotoxicity at 10 µM": -2.48}
{"compound": "CC(C)OCCN1CCC(Nc2ncccn2)CC1", "unit-tag": "%", "cytotoxicity at 10 µM": -1}
{"compound": "c1csc(CCNC2CCc3ncnn3C2)c1 (centres undefined)", "unit-tag": "%", "cytotoxicity at 10 µM": 17.3}
{"compound": "CCOc1ccccc1CN(CC)Cc1ccc(S(=O)(=O)NC)cc1", "unit-tag": "%", "cytotoxicity at 10 µM": -0.943}
{"compound": "CCNC(=O)c1sccc1N(C)S(=O)(=O)c1ccc(Cl)cc1", "unit-tag": "%", "cytotoxicity at 10 µM": 10.8}
{"compound": "CC(C)CN1C[C@H]2N(c3ncccn3)CCC[C@@]2(C(=O)NCC2CC2)C1", "unit-tag": "%", "cytotoxicity at 10 µM": -94.6}
{"compound": "CN(C)C(=O)Cc1ccccc1NCc1cccc(F)c1F", "unit-tag": "%", "cytotoxicity at 10 µM": 9.03}
{"compound": "Cc1cccnc1NC(=O)c1ccc(F)c(S(=O)(=O)NC2CC2)c1", "unit-tag": "%", "cytotoxicity at 10 µM": 1.77}
{"compound": "COc1ccc(F)cc1S(=O)(=O)NCC(O)c1sccc1C (centres undefined)", "unit-tag": "%", "cytotoxicity at 10 µM": -0.269}
{"compound": "CN(C)S(=O)(=O)N1CC[C@]2(O)CCN(c3nc4ccccc4s3)C[C@@H]2C1", "unit-tag": "%", "cytotoxicity at 10 µM": -1.82}
{"compound": "CC(=O)Nc1cc(CCC2CCN(C(=O)c3ccccn3)CC2)ccn1", "unit-tag": "%", "cytotoxicity at 10 µM": -0.331}
{"compound": "Cc1nc(CN(Cc2cccs2)C2CCS(=O)(=O)C2)oc1C (centres undefined)", "unit-tag": "%", "cytotoxicity at 10 µM": -6.46}
{"compound": "Cn1cnc(S(=O)(=O)N2CCCC2c2cnccn2)c1 (centres undefined)", "unit-tag": "%", "cytotoxicity at 10 µM": -28.4}
{"compound": "Cc1cnc(NCC(C)(C)N2CCN(C)CC2)nc1", "unit-tag": "%", "cytotoxicity at 10 µM": -4.52}
{"compound": "O=C(N1CCOCC1)N1CCN(c2ccnc3ccsc23)CC1", "unit-tag": "%", "cytotoxicity at 10 µM": -4.48}
{"compound": "CC(=O)c1cccc(NC(=O)CN2CCCCC2C2OCCO2)c1 (centres undefined)", "unit-tag": "%", "cytotoxicity at 10 µM": -10.5}
{"compound": "c1cc(-c2ccc3nc(C4CCN(CC5CC5)CC4)nn3c2)cs1", "unit-tag": "%", "cytotoxicity at 10 µM": -12.2}
{"compound": "CC(C)C(NC(=O)C1CCCC1)c1cc(O)nc(-c2cccnc2)n1 (centres undefined)", "unit-tag": "%", "cytotoxicity at 10 µM": 9.82}
{"compound": "COCC1Cn2nnc(-c3cnn(C)c3)c2CN1Cc1ccsc1 (centres undefined)", "unit-tag": "%", "cytotoxicity at 10 µM": 2.11}
{"compound": "CC(C)C(=O)N(C)Cc1nnc2n1CCCCC2", "unit-tag": "%", "cytotoxicity at 10 µM": -8.2}
{"compound": "COCCN1CCCC(c2ccnc3c(C(N)=O)cnn23)C1 (centres undefined)", "unit-tag": "%", "cytotoxicity at 10 µM": 2.05}
{"compound": "Cc1ccc2c(c1)OC1(NC2=O)C(=O)N(C)c2ccccc21 (centres undefined)", "unit-tag": "%", "cytotoxicity at 10 µM": -23.8}

* * *

Experiment: Toxicity liver stage against HepG2, at 10uM
Format: cell-based
Set-up: test concentration 10 uM, cell line HepG2-A16-CD81EGFP
Details: human, HepG2-A16-CD81EGFP cells; read-out: INHIBITION
readout-label: cytotoxicity at 10 µM (%)

{"molecule": "CC(C)c1nc(CN2CCC(c3ccnn3CCO)CC2)no1", "measured": -5.71}
{"molecule": "Cc1cc(N2CCCC(OC(=O)CCN3CCCC3=O)C2)nc(C)n1 (stereo unspecified)", "measured": 2.58}
{"molecule": "COCCNC(=O)NC(=O)CNc1c(F)cccc1N1CCCC1", "measured": -2.05}
{"molecule": "Cc1ccc(N2C[C@@H]3CN(Cc4ccsc4)CCO[C@@H]3C2)nn1", "measured": 3.32}
{"molecule": "Cc1ccc(N2CC[C@H]3O[C@@H](C(=O)N4CCCO4)CC[C@H]32)nn1", "measured": 0.908}
{"molecule": "CS(=O)(=O)N1CCC[C@]2(C[C@@H](Oc3ncccc3F)CO2)C1", "measured": 4.09}
{"molecule": "O=C(c1ccc(Br)o1)N1CCCC(n2cncn2)C1 (stereo unspecified)", "measured": -3.22}
{"molecule": "Cc1ccccc1CN(CCO)Cc1ncc[nH]1", "measured": -3.97}
{"molecule": "c1cc(NCc2ccncc2)nc(C2CCCNC2)c1 (stereo unspecified)", "measured": -1.83}
{"molecule": "CNc1nc2cn(CCc3ccc(C)cc3)c(=O)c-2c[nH]1", "measured": 6.36}
{"molecule": "CN(C)C(=O)CN1CCCC(CCCc2ccccn2)(C(N)=O)C1 (stereo unspecified)", "measured": -23.2}
{"molecule": "Cc1ccc(-c2nc(CN(Cc3ccco3)C3CCS(=O)(=O)C3)cs2)o1 (stereo unspecified)", "measured": 10.3}
{"molecule": "COc1cc(CNCCc2cnn(C)c2)cc2c1OCO2", "measured": -9.3}
{"molecule": "Cn1ccc2c(C(=O)N3CCCC(c4nnc[nH]4)C3)cccc21 (stereo unspecified)", "measured": 1.92}
{"molecule": "Cc1cc(NC(=O)C(C)N2CCN(c3nc(C)ns3)CC2)on1 (stereo unspecified)", "measured": -9.48}
{"molecule": "N#Cc1ccc(N2CCC(OC3CCOCC3)CC2)cc1Cl", "measured": 1}
{"molecule": "CN1C(=O)C(c2cccnc2)CC12CCN(CCO)CC2 (stereo unspecified)", "measured": 3.55}
{"molecule": "CCS(=O)(=O)N1CCC2(CC1)CC(CC(=O)NC1CC1)c1ccccc12 (stereo unspecified)", "measured": -1.72}
{"molecule": "CC(C)C1CN(S(=O)(=O)N2CCCC2)CCCN1Cc1ccc(F)cc1 (stereo unspecified)", "measured": 7.2}
{"molecule": "Cc1c(C(=O)N2CCS(=O)(=O)CC2)nnn1-c1ccc2ncccc2c1", "measured": -5.82}
{"molecule": "COc1ccccc1OCCCc1cncc(C(N)=O)c1", "measured": -115}
{"molecule": "O=S(=O)(N1CCOCC1)N1CCOC(CCc2ccccc2)C1 (stereo unspecified)", "measured": -2.55}
{"molecule": "CN1CC(C(=O)NCc2cccnc2OCC(F)(F)F)CC1=O (stereo unspecified)", "measured": -6.6}
{"molecule": "CCCn1cc(NC(=O)c2ccc(N(C)CC)cc2)ccc1=O", "measured": -0.704}
{"molecule": "CCN1CCCC1CN(CCN(C)C)S(=O)(=O)c1cccc(C#N)c1 (stereo unspecified)", "measured": -12.1}
{"molecule": "CC(=O)N(Cc1ncc(C)o1)C1CCN(Cc2ccccc2F)C1 (stereo unspecified)", "measured": -8.08}
{"molecule": "Cn1cc(NC(=O)c2cccc3cccnc23)ccc1=O", "measured": -4.83}
{"molecule": "COCCn1cc(NC(=O)NC(C)CCc2ccccc2)ccc1=O (stereo unspecified)", "measured": 3.4}
{"molecule": "CN(C)C(C(=O)NCC1(O)CCCCC1)c1cccc(F)c1 (stereo unspecified)", "measured": -2.07}
{"molecule": "Cc1nc(C)n(CC2CCCN2Cc2nc3ccccc3o2)n1 (stereo unspecified)", "measured": -5.62}
{"molecule": "CCOC(=O)N1CCN(c2nc(CCN)nc3sc(C)c(C)c23)CC1", "measured": -43.4}
{"molecule": "CC(=O)Nc1sc2c(c1C(=O)O)CCc1ccccc1-2", "measured": 0.513}
{"molecule": "O=C(c1ccco1)N1C[C@@H]2CN(c3ccccn3)C[C@@H]2C1", "measured": -1.27}
{"molecule": "CC(C)C1SCC(=O)Nc2c1c(O)nn2C1CCCC1 (stereo unspecified)", "measured": 1.4}
{"molecule": "O=C(c1ccccc1F)N1CC2(CCNCC2)c2cc(Cl)ccc21", "measured": -3.31}
{"molecule": "CNC(=O)[C@@H]1CN(C(=O)COC)C[C@H]1c1ccnc(N2CCCC2)n1", "measured": 2.75}
{"molecule": "c1ccc(-c2nc(CN3CCCC3Cn3cccn3)no2)cc1 (stereo unspecified)", "measured": -6.69}
{"molecule": "Nc1ncncc1-c1noc([C@@H]2CCCN2CC2CC2)n1", "measured": -1.18}
{"molecule": "COCCn1cnnc1Cn1ccnc1-c1ccccc1C", "measured": -7.58}
{"molecule": "CC[C@@]1(O)CCN(C(=O)c2ccc(OC(F)F)cc2)C[C@H]1O", "measured": 6.2}
{"molecule": "COC(=O)CCC(=O)N1CCCC2(CCCN2Cc2cccc(F)c2)C1 (stereo unspecified)", "measured": -104}
